System: LXRa homodimer (NR concentration 270 nM)
assay-notes: PBM binding z-score (relative to random genomic background probes); higher = stronger binding; sequences stand for … in GC…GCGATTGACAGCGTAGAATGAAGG
Short version: PBM binding z-score at least 0.2 is 1, less is 0.

                         residue_codes  label_value
 0  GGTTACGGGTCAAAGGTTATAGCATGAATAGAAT            1
 1  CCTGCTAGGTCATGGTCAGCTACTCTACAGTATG            1
 2  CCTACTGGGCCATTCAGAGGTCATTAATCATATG            1
 3  GGAACGAGGGCCAAGTTGATAGCATCTGTCGACG            0
 4  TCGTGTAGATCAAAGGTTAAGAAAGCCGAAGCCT            1
 5  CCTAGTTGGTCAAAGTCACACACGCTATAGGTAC            1
 6  TCGAGTAGGTTTCCAATGGGGCATTCAGCTTTCT            0
 7  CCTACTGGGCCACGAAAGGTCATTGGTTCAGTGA            1
 8  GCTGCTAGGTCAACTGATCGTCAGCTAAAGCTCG            0
 9  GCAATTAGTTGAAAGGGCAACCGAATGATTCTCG            0
10  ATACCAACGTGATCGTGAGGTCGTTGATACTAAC            1
11  AATACAGAGTCACTAGGCCAGAGTAGGTACGAAT            0
12  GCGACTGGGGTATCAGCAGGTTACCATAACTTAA            0
13  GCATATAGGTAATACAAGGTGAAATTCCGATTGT            1
14  CAAACTAGGTCACGAAAGGTCAAAGACGAATGAC            1
15  TCGAGTACGTTAGGGGCATTCAGAATGGCGTCGA            0
16  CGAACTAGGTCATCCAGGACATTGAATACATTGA            1
17  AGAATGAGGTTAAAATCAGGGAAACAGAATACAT            1
18  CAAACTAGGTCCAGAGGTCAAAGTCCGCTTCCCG            1
19  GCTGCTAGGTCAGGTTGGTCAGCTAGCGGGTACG            0
20  CCGAGTAGGTTATGGGTCATTCAGGCAACGGTGA            1
21  TGTCAAAGTTCAAAGGTAACGTGAGTATCCACAC            1
22  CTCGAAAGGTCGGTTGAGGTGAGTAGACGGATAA            0
23  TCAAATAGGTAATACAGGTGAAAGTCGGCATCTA            1
24  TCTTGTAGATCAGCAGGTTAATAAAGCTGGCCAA            0
25  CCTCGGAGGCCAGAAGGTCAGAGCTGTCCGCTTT            0
26  TCGAGTAGGTTAGCCGGGGCATTCAGCCAACATA            0
27  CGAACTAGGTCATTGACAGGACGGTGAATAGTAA            0
28  AGAATGAGGTTATACGTAGATCACGGAAGAAAGT            1
29  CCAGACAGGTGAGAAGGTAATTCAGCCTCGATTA            0
30  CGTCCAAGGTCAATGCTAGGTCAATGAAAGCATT            1
31  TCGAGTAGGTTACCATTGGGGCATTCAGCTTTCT            0
32  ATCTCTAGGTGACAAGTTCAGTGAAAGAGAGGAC            0
33  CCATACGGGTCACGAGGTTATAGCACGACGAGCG            1
34  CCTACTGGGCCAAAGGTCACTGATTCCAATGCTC            1
35  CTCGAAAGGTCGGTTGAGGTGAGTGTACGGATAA            0
36  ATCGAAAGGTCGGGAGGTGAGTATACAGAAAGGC            1
37  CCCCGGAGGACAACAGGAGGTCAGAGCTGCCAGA            1
38  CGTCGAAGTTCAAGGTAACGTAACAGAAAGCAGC            0
39  CCTGCTAGGTCAATAGTCAGCTAAAGCAGCTCGC            0
40  CCCACTGGGCCAAAAAGGTCATTGATGCCGATAA            1
41  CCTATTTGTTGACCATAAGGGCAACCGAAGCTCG            1
42  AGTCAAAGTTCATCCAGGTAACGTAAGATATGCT            1
43  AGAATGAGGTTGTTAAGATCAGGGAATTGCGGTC            0
44  TAGCCTAGGACATTGGGCCAGTATAGTACGCATC            0
45  ATACCAAGGTGATCGTGAGGTCGTTGAAACTAAC            1
46  ATATGTAGGTTAGCTGGGTTCATTCAGACTAGGC            1
47  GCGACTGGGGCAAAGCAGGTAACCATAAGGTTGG            0
48  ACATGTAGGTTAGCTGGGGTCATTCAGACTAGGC            1
49  CGTCCAAGGTCAATGCTAGGTCAGTGTAAGCATT            1
50  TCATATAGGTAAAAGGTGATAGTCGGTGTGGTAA            1
